# testedSystem: GST-Bcl-B (Homo sapiens)
# Sequence (Q9HD36 1-182 limits assumed): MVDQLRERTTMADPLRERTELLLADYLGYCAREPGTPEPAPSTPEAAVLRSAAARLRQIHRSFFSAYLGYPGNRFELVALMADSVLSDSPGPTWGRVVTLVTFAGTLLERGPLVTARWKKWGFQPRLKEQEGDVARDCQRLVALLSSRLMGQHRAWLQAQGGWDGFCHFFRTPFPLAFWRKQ
# experiment: Bcl-B/FITC-TR3-r8 fluorescence polarization competition (displacement) assay, HTS and dose-response
# condition: Table 8, NCI Structural library; Binding Assay, FP; Concentration 0.02 uM
attributeMeasured: F Ratio

COc1ccc2nc3cc(Cl)ccc3c(Nc3ccc(O)c(CN4CCN(C)CC4)c3)c2c1.Cl [Compound 130813] : 0.07696

Each of the following entries comes with a recorded value; kindly state F Ratio for each.
1. CC1C2C=CC1C(c1c3ccc(=O)c(O)c-3oc3c(O)c(O)ccc13)C2C(=O)O (stereo not shown) [Compound 119913]
2. COc1cc(-c2[o+]c3cc(O)cc(O)c3cc2O)cc(O)c1O.O=C(O)c1ccccc1 [Compound 114885]
3. N=C1C=CC(=C(c2ccc(N)cc2)c2ccc(N)cc2)C=C1 [Compound 10460]
4. O=C(O)c1cnc2c(ccc3ncc(C(=O)O)c(O)c32)c1O [Compound 128884]

Data returned:
[0.0972, 0.08249, 0.1378, 0.205]

Each of the following entries comes with a recorded value; kindly state F Ratio for each.
1. N=C(N)c1ccc(/N=N/c2c(O)ccc3c2[nH]c2ccccc23)cc1 [Compound 357777]
2. Oc1ccc(Cc2nccc3cc(O)c(O)cc23)cc1O [Compound 99799]
3. Nc1ccc(/N=N/c2ccc(-c3ccc(O)cc3)cc2)c2ccc(S(=O)(=O)O)cc12 [Compound 65528]
4. Oc1cc(O)c2c(c1)OC(c1ccc(O)c(O)c1)C(O)C2c1c(O)cc(O)c2c1OC(c1ccc(O)c(O)c1)C(O)C2 (stereo not shown) [Compound 143099]
5. CN(C)C1C(O)=C(C(N)=O)C(=O)C2(O)C(O)=C3C(=O)c4c(O)cccc4C(C)(O)C3CC12.CS(=O)(=O)O (stereo not shown) [Compound 69343]
6. CCOc1ccc2nc3cc(/N=N/c4ccc(N)nc4N)ccc3c(N)c2c1.Cl [Compound 354961]
7. Nc1c(S(=O)(=O)O)cc(Nc2cccc(S(N)(=O)=O)c2)c2c1C(=O)c1ccccc1C2=O [Compound 117079]
8. O=[N+]([O-])c1ccc2c(/N=N/c3ccc4ccccc4c3O)c(O)cc(S(=O)(=O)O)c2c1 [Compound 7223]

Data returned:
0.06989
0.09369
0.1609
0.1606
0.3746
1.1279
0.4053
0.05712

---

# testedSystem: GST-Bfl-1 (Homo sapiens)
# Construct: lacking their C-terminal transmembrane domains (about the last 20 amino acids) (“ΔTM”); made in house; host or cells: XL-1 Blue E. coli, pGEX 4T-1
# Sequence (Q16548 1-155 limits assumed): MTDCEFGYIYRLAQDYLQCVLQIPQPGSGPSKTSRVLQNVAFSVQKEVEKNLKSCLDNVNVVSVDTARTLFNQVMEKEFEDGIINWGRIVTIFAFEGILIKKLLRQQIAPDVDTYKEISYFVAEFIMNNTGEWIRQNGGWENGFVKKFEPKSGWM
# experiment: Bfl-1/FITC-Bid BH3 competitive fluorescence polarization assay
# Type: binding
# condition: primary HTS hits, MLSCN library (PubChem SIDs), Table 5B
attributeMeasured: % Activity
Kindly report the value followed by its unit.

These recorded examples may help you get a feel for the data.
CN(C)c1ccc(NC(=O)CN2C(=O)CC(c3ccccc3)=Nc3ccccc32)cc1 : 62.6%
Cc1ccc(-[n+]2c(-c3ccc(Br)cc3)cn3c2CCc2ccc4cccnc4c2-3)cc1 : 56.2%

Each of the following entries comes with a recorded value; kindly state % Activity for each.
1. C=CCSc1nnc2nc3c(nn12)c1cc(C)ccc1n3CC=C
2. Cc1ccc(/N=N/c2ccc(O)c(/C=N/NC(=O)c3ccc(N)cc3)c2)cc1C
3. Cc1ccc(-c2nnc(S)n2/N=C/C=C/c2ccccc2[N+](=O)[O-])cc1
4. CC(=N)/C(C#N)=C(\O)CSc1nc2ccccc2[nH]1
5. Cc1cc(C)c(NC(=O)C2=CC3C(N=C4SC=CN43)S2)c(C)c1 (stereo not drawn)
6. COC(=O)c1ccccc1NC(=O)c1noc2c1CCC2
7. Cc1nn2c(N)csc2nc1=O

Data returned:
1: 69.4%; 2: 91.7%; 3: 55.5%; 4: 105.8%; 5: 66.1%; 6: 72.8%; 7: 56.4%

Each of the following entries comes with a recorded value; kindly state % Activity for each.
1. CCOC(=O)c1ccc(NC2=CC(=O)C(=O)c3ccccc32)cc1
2. O=C1NC(=O)[C@]2(Cc3ccccc3N3CCN(c4ccccc4)CC32)C(=O)N1c1ccccc1 (stereo partly drawn)

Data returned:
89.5%
53.1%

Each of the following entries comes with a recorded value; kindly state % Activity for each.
1. Cc1cnnn1-c1ccc(C(=O)CCl)cc1
2. COc1cc(CC(=O)OCC(=O)Nc2ncc(Cl)cc2Cl)cc(OC)c1OC
3. COc1cccc(C(=O)NC2CC3CCCC(C2)N3CC(=O)Nc2ccccc2)c1 (stereo not drawn)

Data returned:
1: 52.9%; 2: 54%; 3: 90%

Each of the following entries comes with a recorded value; kindly state % Activity for each.
1. O=C1c2ccccc2C(=O)c2c1cccc2N1CCN(CCO)CC1
2. CC1CCN(c2ccc(C(=O)O)cc2N)CC1
3. COc1cc(-c2nnc(SCc3cc(=O)oc4cc(O)c(O)cc34)o2)cc(OC)c1OC
4. FC(F)(F)c1cnc(Nc2ccc(N3CCOCC3)cc2)c(Cl)c1
5. C=CCNS(=O)(=O)c1nc(C)c(Cl)c(C)c1C#N
6. COc1cccc(N2CCN(Cc3ccsc3)CC2)c1

Data returned:
1: 56.9%; 2: 73.3%; 3: 68.3%; 4: 51.4%; 5: 69.9%; 6: 56.1%

Each of the following entries comes with a recorded value; kindly state % Activity for each.
1. CC(C)CN(C(=O)COC(=O)c1cc2c(s1)CCC2)C1CCS(=O)(=O)C1 (stereo not drawn)
2. CSc1ccccc1NC(=O)c1noc2c1CCC2
3. O=C(Nc1ccccc1N1CCOCC1)c1cc(-c2ccco2)nc2ccccc12
4. COC(=O)c1[nH]c2cccc(OC)c2c1NC(=O)CCN1CCC(C(N)=O)CC1
5. Cc1cc(OCC(=O)Nc2ccc(N3CCCC3)cc2)cc(C)c1Cl
6. COC(=O)c1cccc(NC(=O)CSc2nc(C)cc(O)n2)c1
7. Cc1ccc(NC(=O)CSc2nnc(-c3ccco3)c(-c3ccco3)n2)cc1
8. Cc1ccccc1C1C(=O)c2sc3nc4c(c(=O)n3c2C1=O)CCC4 (stereo not drawn)

Data returned:
1: 53.1%; 2: 75.7%; 3: 61.4%; 4: 71.7%; 5: 59.3%; 6: 59.9%; 7: 56.9%; 8: 50.8%

Each of the following entries comes with a recorded value; kindly state % Activity for each.
1. CCOc1ccc2nc(O)c(O)nc2c1
2. O=C(Nc1ccccc1C(=O)O)c1ccccc1

Data returned:
["69.6%", "85.4%"]

Each of the following entries comes with a recorded value; kindly state % Activity for each.
1. COc1ccccc1N1CCN(C(=O)c2cc3c(s2)CCC3)CC1
2. c1coc(-c2nn3c(-c4ccco4)nnc3s2)c1
3. CN(C)S(=O)(=O)N(CC(=O)N(Cc1ccccc1)Cc1ccccc1)c1ccccc1
4. CCS(=O)(=O)N1Cc2ccccc2CC1C(=O)N1CCN(c2cccc(C)c2C)CC1 (stereo not drawn)
5. N/C(=N\N=C\c1ccc(-c2ccc(O)c(C(=O)O)c2)o1)N[N+](=O)[O-]
6. Cc1cc(C)nc(Nc2ccc(N3CCCC3)cc2)n1

Data returned:
1. 74.1%
2. 60.4%
3. 90.4%
4. 54.7%
5. 84.4%
6. 108.1%

---

# testedSystem: GST-Bcl-B (Homo sapiens)
# experiment: Bcl-B/FITC-TR3-r8 fluorescence polarization competition (displacement) assay, HTS and dose-response
# condition: LOPAC1280 library primary screen
attributeMeasured: Is Hit

These recorded examples may help you get a feel for the data.
O=[N+]([O-])c1cc(O)c(O)c([N+](=O)[O-])c1 : Yes
O=C(O)C1=CC(=C(c2ccc(O)c(C(=O)O)c2)c2ccc(O)c(C(=O)O)c2)C=CC1=O : Yes
O=c1c(O)c(-c2cc(O)c(O)c(O)c2)oc2cc(O)cc(O)c12 : Yes
N#C/C(=C\c1ccc(O)c(O)c1)C(=O)c1ccc(O)c(O)c1 : Yes
O=C(c1cc(O)c(O)c([N+](=O)[O-])c1)c1ccccc1F : Yes

Each of the following entries comes with a recorded value; kindly state Is Hit for each.
1. Nc1c(S(=O)(=O)O)cc(Nc2ccc(Nc3nc(Cl)nc(Nc4ccc(S(=O)(=O)O)cc4)n3)c(S(=O)(=O)O)c2)c2c1C(=O)c1ccccc1C2=O
2. C[C@H](Cc1ccc(O)c(O)c1)[C@@H](C)Cc1ccc(O)c(O)c1
3. O=c1cc(O)cc(/C=C/c2ccc(O)c(O)c2)o1
4. Cc1nc(/N=N\c2cc(S(=O)(=O)O)c3cc([N+](=O)[O-])cc(S(=O)(=O)O)c3c2)c(COP(=O)(O)O)c(C=O)c1O
5. O=C1c2c(O)ccc(O)c2C(=O)c2c(NCCNCCO)ccc(NCCNCCO)c21
6. CN(N=O)c1cc(O)ccc1O
7. O=C(Nc1cc(C(=O)Nc2ccc(S(=O)(=O)O)cc2S(=O)(=O)O)cc(C(=O)Nc2ccc(S(=O)(=O)O)cc2S(=O)(=O)O)c1)Nc1cc(C(=O)Nc2ccc(S(=O)(=O)O)cc2S(=O)(=O)O)cc(C(=O)Nc2ccc(S(=O)(=O)O)cc2S(=O)(=O)O)c1
8. [NH3+][Ru]([NH3+])([NH3+])([NH3+])([NH3+])[O][Ru]([NH3+])([NH3+])([NH3+])([NH3+])[O][Ru]([NH3+])([NH3+])([NH3+])([NH3+])[NH3+]

Data returned:
["Yes", "Yes", "Yes", "Yes", "Yes", "Yes", "Yes", "Yes"]

Each of the following entries comes with a recorded value; kindly state Is Hit for each.
1. O=c1c(O)c(-c2ccc(O)c(O)c2)oc2cc(O)cc(O)c12
2. CN(N=O)c1ccc(O)c(O)c1

Data returned:
Yes
Yes
